Tested on: P12-Ichikawa
Assay: cell viability relative to DMSO control; higher = less cytotoxic
Settings: RPMI 5 mM glucose + 10% FBS; 48 h; 0.0632 µM
measuredEndpoint: cell viability (%)
One number for each entry, in %.

Solved entries:
INSERT INTO results (mol, readoutnumber) VALUES
  ('NC/1=N/C(=O)C2=C([NH]C=C2CCC3=CC=C(C=C3)C(=O)N[C@@H](CCC(O)=O)C(O)=O)N1', 110),
  ('Cc1nc(C(=O)NCC(=O)O)c(O)c2ccc(Oc3ccccc3)cc12', 110),
  ('CCNC(=O)c1noc(-c2cc(C(C)C)c(O)cc2O)c1-c1ccc(CN2CCOCC2)cc1', 97.4),
  ('COc1cc([S+](C)(=O)[O-])ccc1Nc1nc2ccc(-c3ccc(NC(=O)[C@H](C)c4ccc(F)cc4)cc3)cn2n1', 113);

Need cell viability for each of these molecules.
1. CNC(=O)c1cc(COc2nnc(Nc3ccc(Cl)cc3)c3ccoc23)ccn1
2. CNC(=O)c1cc(Oc2ccc(NC(=O)Nc3ccc(Cl)c(C(F)(F)F)c3)c(F)c2)ccn1
3. CN1CCC(=C2c3ccccc3CCc3sccc32)CC1
4. CN1\C(=C(O)/C2=C(C=C(Cl)S2)[S+]1([O-])=O)C(=O)NC3=NC=CC=C3
5. COc1cc([C@@H]2c3cc4c(cc3[C@H](O)[C@H]3COC(=O)[C@H]23)OCO4)cc(OC)c1OC
6. CN(C)c1ccccc1CN1CCCN(Cc2ccccc2N(C)C)C1c1ccncc1

116
86.2
119
128
7.32
93.7
